# System: B16
# assayInfo: log 1/D125 or the dose (mmol/kg) to give 125%T/C ratio (B16) in vivo
# Assay type: functional, Mus musculus
measurementKind: Log 1/D125 (mM kg-1)
Form: value (number only, do not type unit).

• C/N=C1C(O)=C(N2CC2)/C(=N\C)C(O)=C\1N1CC1 = 3.14
• CC1=C(N2CC2)C(=O)C(CCOC(N)=O)=C(N2CC2)C1=O = 3.49
• O=C1C=C(N2CC2)C(=O)C(N2CC2)=C1N1CC1 [TRIAZIQUONE] = 3.8
• C/N=C1C(O)=C(N2CC2C)/C(=N\C)C(O)=C\1N1CC1C (stereo unspecified) = 2.33
• CCOC(=O)NC1=C(N2CC2C)C(=O)C(NC(=O)OCC)=C(N2CC2C)C1=O (stereo unspecified) = 1.94
• COC1=C(N2CC2)C(=O)C(OC)=C(N2CC2)C1=O = 3.53
• CC1=C(N2CC2C)C(=O)C(C)=C(N2CC2C)C1=O (stereo unspecified) = 2.27
• CCC1=C(N2CC2)C(=O)C(Br)=C(N2CC2)C1=O = 2.6

Any idea what its Log 1/D125 (mM kg-1) is? The molecule is CC1=C(N2CC2C)C(=O)C(CCOC(N)=O)=C(N2CC2C)C1=O (stereo unspecified)
2.31

Query: Log 1/D125 (mM kg-1); subject: CC1=C(N2CC2)C(=O)C(Cl)=C(N2CC2)C1=O
2.68

What does the record list as Log 1/D125 (mM kg-1) for OCC/N=C1C(O)=C(N2CC2)/C(=N\CCO)C(O)=C/1N1CC1 ?
3.94

###

# Test system: B16
# assayInfo: log 1/D125 or the dose (mmol/kg) to give 125%T/C ratio (B16) in vivo
# Type: functional, Mus musculus
measurementKind: Log 1/D125 (mM kg-1)
Form rule: numeric answer, no unit written next to it.

- CC1=C(N2CC2C)C(=O)C(Br)=C(N2CC2C)C1=O (stereo not given): 1.71
- CCC1=C(N2CC2)C(=O)C(C)=C(N2CC2)C1=O: 3.25

Fill blank: measured Log 1/D125 (mM kg-1) of the compound CC1CN1C1=CC(=O)C(N2CC2C)=CC1=O (stereo not given) is ____.
2.12

Bench note: what Log 1/D125 (mM kg-1) did O=C1C(N2CCCC2)=C(N2CC2)C(=O)C(N2CCCC2)=C1N1CC1 show?
2.4

Suppose we examine the compound CC1=C(N2CC2)C(=O)C(CCO)=C(N2CC2)C1=O ; what Log 1/D125 (mM kg-1) value has been reported?
3.6

###

# assayInfo: Observed rate of hydrolysis (logKobs) (pH=4.0)
# Type: ADME
measurementKind: Log Kobs
In your answer, state the number alone without any accompanying words.

Consider the worked cases shown below.
- CC1=C(N2CC2)C(=O)C(CCOC(N)=O)=C(N2CC2)C1=O: -4.05
- O=C1C(F)=C(N2CC2)C(=O)C(F)=C1N1CC1: -4.03

Lab note: next compound to report on.
# Log Kobs lookup, item CC1=C(N2CC2)C(=O)C(CCO)=C(N2CC2)C1=O
-4

###

# assayInfo: Electrochemically observed pKa (pKred) of aziridines
# Format: physicochemical
# measurementParameters: read-out: pKred
Measured pKa, listed per entry.
Respond numerically, and do not add a unit to the figure.

- CCOC(=O)NC1=C(N2CC2)C(=O)C(NC(=O)OCC)=C(N2CC2)C1=O: 8.3
- COC(COC(N)=O)C1=C(N2CC2)C(=O)C(C)=C(N2CC2)C1=O (configuration not stated): 8.6
- CC1=C(N2CC2C)C(=O)C(C)=C(N2CC2C)C1=O (configuration not stated): 8.6
- C/N=C1C(O)=C(N2CC2)/C(=N\C)C(O)=C\1N1CC1: 8.5
- CC1=C(N2CC2)C(=O)C(CCO)=C(N2CC2)C1=O: 8.6

# query: pKa of entry CC1CN1C1=C(N2CCCC2)C(=O)C(N2CC2C)=C(N2CCCC2)C1=O (configuration not stated)
11.1

Endpoint output: pKa of CC1CN1C1=C(F)C(=O)C(N2CC2C)=C(F)C1=O (configuration not stated) . Value?
7.9

###

# assayInfo: HPLC capacity factor (logK)
# Format: ADME
Label true (1) when Log K < 0.5; otherwise false (0).

Hello, I'm reviewing records and need to know if Log K of NC1=CC(=O)c2ccccc2C1=O is below 0.5. Could you check?
true (1)

###

# System: B16
# assayInfo: log 1/D125 or the dose (mmol/kg) to give 125%T/C ratio (B16) in vivo
# Assay type: functional, Mus musculus
Below, each entry is listed with its recorded Log 1/D125 (mM kg-1).

Recorded Log 1/D125 (mM kg-1), per entry:
• CCOC(=O)NC1=C(N2CC2)C(=O)C(NC(=O)OCC)=C(N2CC2)C1=O [DIAZIQUONE] = 2.32
• CC1=C(N2CC2)C(=O)C(Br)=C(N2CC2)C1=O = 2.09
• O=C1C=C(N2CC2)C(=O)C=C1N1CC1 = 3.16
• COC(COC(N)=O)C1=C(N2CC2)C(=O)C(C)=C(N2CC2)C1=O (stereo not given) [CARBOQUONE] = 3.32

# query: Log 1/D125 (mM kg-1) of entry NC(=O)OCCC1=C(N2CC2)C(=O)C(Br)=C(N2CC2)C1=O
2.68

###

# assayInfo: HPLC capacity factor (logK)
# Assay type: ADME
Please mark criterion met if the recorded Log K is equal to or greater than 0.3, and criterion not met if it falls below.

As a guide, the following entries are already answered.
- O=C1C=C(N2CCCC2)C(=O)C=C1N1CCCC1: criterion met
- CC1CN1C1=C(F)C(=O)C(N2CC2C)=C(F)C1=O (configuration not stated): criterion met
- CN(C)C1=CC(=O)C(N(C)C)=CC1=O: criterion not met
- CCC1=C(N2CC2)C(=O)C(C)=C(N2CC2)C1=O: criterion not met
- C/N=C1\C=C(O)c2ccccc2C1=O: criterion not met
- O=C1C=C(N2CC2)C(=O)c2ccccc21: criterion met
- O=C1/C(=N/CCO)C=C(O)c2ccccc21: criterion not met
- CC1CN1C1=CC(=O)c2ccccc2C1=O (configuration not stated): criterion met
- CC1=CC(=O)c2ccccc2C1=O [MENADIONE]: criterion met
- CC1=C(N2CC2)C(=O)C(Cl)=C(N2CC2)C1=O: criterion not met

For this compound, is measured Log K 0.3 or higher? COC(COC(N)=O)C1=C(N2CC2)C(=O)C(C)=C(N2CC2)C1=O (configuration not stated) [CARBOQUONE]
criterion not met

Has O=C1C(Br)=C(N2CC2)C(=O)C(Br)=C1N1CC1 a recorded Log K greater than or equal to 0.3?
criterion met

State whether the measured Log K reaches 0.3, counting equality as reaching it, for CCOC(=O)NC1=C(N2CC2)C(=O)C(NC(=O)OCC)=C(N2CC2)C1=O [DIAZIQUONE]
criterion not met

###

# assayInfo: HPLC capacity factor (logK)
# Type: ADME
Measured Log K values are reported for all entries that follow.
Provide a numeric answer; units are not to be included.

# example entries with known answers
- CC1=C(N2CC2)C(=O)C(Br)=C(N2CC2)C1=O: 0.279
- CN(C)C1=CC(=O)c2ccccc2C1=O: 0.591
- CC1CN1C1=CC(=O)C(N2CC2C)=CC1=O (centres undefined): 0.152
- CC1=CC(=O)C=C(C)C1=O: 0.136
- O=C1C=CC(=O)C=C1: -0.466

Give its Log K value. Item: O=C1C=CC(=O)c2ccccc21
0.299

Request the reported Log K associated with O=C1C=C(N2CCCC2)C(=O)c2ccccc21
0.736

# get_value(readout='Log K', item= O=C1C=C(Br)C(=O)c2ccccc21 )
0.748

So what's the measured Log K for this one? NC1=C(Cl)C(=O)c2ccccc2C1=O
0.259
